System: UACC-62 melanoma
METHOD SUMMARY: NCI-60 one-dose screen, 48 h (100 = growth as untreated, 0 = no growth, -100 = all killed)
MEASUREMENT SETUP: 10 µM unless noted
Compounds without any hit were thinned out: in the full panel of roughly 83,000, 20% have a hit.
growth by entry:
Form entry: value (%) — number only.

See these solved cases before continuing.
MOLECULE	PARAMETER MEASURED	OBSERVED MEASUREMENT
CCCCN=C(N)c1ccc(OCCSCCOc2ccc(C(N)=NCCCC)cc2)cc1	growth	58.3
Cc1nn(-c2nc3ccccc3s2)c(C)c1Oc1ccccc1O	growth	39
Cc1cc(C)c(C(=O)c2cccs2)c(C)c1	growth	97

-- ask Write down the reported growth (system: UACC-62 melanoma) of Clc1ccc(C2=NN(c3ccc(Cl)cc3)C(c3cccc(Nc4ccnc5cc(Cl)ccc45)c3)C2)cc1 (configuration not stated)
-- reply 88.3

-- ask Write down the reported growth (system: UACC-62 melanoma) of `COc1cc(/C=C/c2cc(/C=C/c3ccc(O)c(OC)c3)n(C(=O)c3ccc(Cl)cc3)n2)ccc1O`
-- reply 22.5

-- ask Write down the reported growth (system: UACC-62 melanoma) of `Cc1cc2ccccn2c1C(=O)c1ccc(C(=O)c2ccccc2)cc1`
-- reply 75.1

-- ask Write down the reported growth (system: UACC-62 melanoma) of `Cc1ccc(/C=C(/C#N)n2nnc3ncccc32)cc1`
-- reply 22.1

-- ask Write down the reported growth (system: UACC-62 melanoma) of `COc1ccc(CNC(=O)c2c(C)n([O-])c3cc(F)c(F)cc3[n+]2=O)cc1`
-- reply 87.7

-- ask Write down the reported growth (system: UACC-62 melanoma) of CCCCCCCCCCCCCCCCCC1=NC(C)(CO)CO1 (configuration not stated)
-- reply 86.7

* * *

Test system: NCI-H23 lung
METHOD SUMMARY: NCI-60 one-dose screen, 48 h
MEASUREMENT SETUP: 10 µM unless noted
The panel holds about 83,000 compounds, 20% with a hit somewhere; the sample as a whole holds those more often. The source made the active and inactive calls. How the source made its calls: active means growth percent below 10; inactive means the rest.
The reply should be one of these categories: active, inactive

COMPOUND	ASSIGNED CLASS
CC(=O)Nc1ccc(C(=O)COc2cccc(/C=C3\CCc4ccccc4C3=O)c2)cc1	inactive
Cc1nn(-c2ccccc2)c2nc(N)c(C3=NCCO3)nc12	inactive
Nc1ccc(N=Nc2ccccc2)cc1[N+](=O)[O-]	inactive

-- ask State the result this test recorded for `CCCCCCCC[Si](OCC)(OCC)OCC` .
-- reply inactive

-- ask State the result this test recorded for CC1CN(/N=C/c2ccc([N+](=O)[O-])o2)C(=N)O1 (centres undefined) .
-- reply inactive

-- ask State the result this test recorded for `C[C@]12CC[C@H](O)CC1=CC[C@@H]1[C@@H]2CC[C@]2(C)C(c3cccnc3)=CC[C@@H]12` .
-- reply inactive

-- ask State the result this test recorded for `[N-]=[N+]=NCc1ncc(-c2ccc(C(F)(F)F)cc2)c(NC2CCCCCC2)n1` .
-- reply inactive

-- ask State the result this test recorded for `O=C(COc1ccc(/C=C2\Oc3ccc4ccccc4c3C2=O)cc1)c1ccc(Cl)cc1` .
-- reply inactive

-- ask State the result this test recorded for COc1cc(/C=C/C(=O)C(C(=O)/C=C/c2ccc(OC(=O)CCNC34CC5CC(CC(C5)C3)C4)c(OC)c2)C(=O)CCNC23CC4CC(CC(C4)C2)C3)ccc1OC(=O)CCNC12CC3CC(CC(C3)C1)C2 (centres undefined) .
-- reply inactive

-- ask State the result this test recorded for `CN1CCC[C@@H]1CCO[C@](C)(c1ccccc1)c1ccc(Cl)cc1` .
-- reply inactive

-- ask State the result this test recorded for `O=C(Nc1nc2ccc(OC(F)(F)F)cc2s1)c1ccc(F)cc1` .
-- reply active

-- ask State the result this test recorded for CC[C@@H](C)/C=C(C)/C=C/C(=O)c1c(O)c(-c2ccc(O)cc2)cn(OC2CC(=O)CCC(C)OC(=O)CC2O)c1=O (some centres undefined) .
-- reply inactive

-- ask State the result this test recorded for `O=C(NN1C(=O)c2cc(C(=O)O)c(C(=O)O)cc2C1=O)c1ccncc1` .
-- reply inactive

-- ask State the result this test recorded for `Cc1ccc(-c2cc(-c3ccccc3)n(-c3ccccc3)n2)cc1` .
-- reply inactive

-- ask State the result this test recorded for `C[C@H]1c2cccc(O)c2C(O)=C2C(=O)[C@]3(O)C(O)=C(C(N)=O)C(=O)[C@@H](N(C)C)[C@@H]3[C@@H](O)[C@@H]21` .
-- reply inactive

-- ask State the result this test recorded for `Cn1c(=O)c2[nH]c(=S)n(Cc3ccccc3)c2n(C)c1=O` .
-- reply inactive

-- ask State the result this test recorded for `OCCN1CCN(CCCN2c3ccccc3Sc3ccc(C(F)(F)F)cc32)CC1` .
-- reply inactive

-- ask State the result this test recorded for CC1=C([Se]CC(OC(=O)[C@@H](CSSC(C)(C)C)NC(=O)C(C)(C)C)C(=O)NCCCCCC(=O)OCc2ccccc2)C(=O)c2ccccc2C1=O (some centres undefined) .
-- reply active

-- ask State the result this test recorded for `COC(=O)CC1=C(c2ccc([N+](=O)[O-])cc2)CCC1=O` .
-- reply inactive

-- ask State the result this test recorded for CC1(C)CC2(C)CC(=O)C1C(C(=O)O)C2C(=O)O (centres undefined) .
-- reply inactive

-- ask State the result this test recorded for `CSc1nc(Nc2ccc(S(=O)(=O)Nc3ccon3)cc2)c(C#N)c(-c2ccc(Cl)cc2)n1` .
-- reply inactive

-- ask State the result this test recorded for `CN(C)c1ccc(-n2nc3ccccc3n2)cc1` .
-- reply inactive

-- ask State the result this test recorded for `CCOC(=O)Nc1ccc2c3c(cccc13)-c1ccccc1-2` .
-- reply inactive

-- ask State the result this test recorded for `COc1cc(/C=N/NC(=O)c2ccc(C(F)(F)F)nc2Nc2cc(Cl)ccc2C)cc(OC)c1OC` .
-- reply inactive

-- ask State the result this test recorded for `O=C(CN1CCN(c2ccc(Cl)cc2)CC1)N1CCN(c2nnc(-c3ccccc3)c(-c3ccccc3)n2)CC1` .
-- reply inactive

-- ask State the result this test recorded for `O=C(CN1CCN(c2ccc(Cl)cc2)CC1)N1CCN(c2nnc(-c3ccc(Cl)cc3)c(-c3ccc(Cl)cc3)n2)CC1` .
-- reply inactive

-- ask State the result this test recorded for `Cc1cc(C)c2c(N)c3cccc(C)c3nc2n1` .
-- reply active

-- ask State the result this test recorded for `O=C1OC2(c3ccccc31)c1ccccc1-c1ccccc12` .
-- reply inactive

-- ask State the result this test recorded for `Cc1cc(=O)[nH]c(/C(=N/Nc2ccccc2)C(=O)c2ccc(Cl)cc2)n1` .
-- reply inactive
